Here we gather IC50 data for Histone lysine demethylase PHF8 (Homo sapiens, UniProt Q9UPP1) reported by several publications.

The compound listed as CC(N[C@@H](C)C(=O)NCc1ccc([N+](=O)[O-])cc1)c1cc(C(=O)O)ccn1 (stereo partly shown) has a reported IC50 of > 2500 nM

The reported value for CN(C)CCCCNCc1cc(C=O)ccn1 in terms of IC50 is > 2500 nM

Form: compound = N#Cc1[nH]nnc1-c1ccnc(-c2cn(CCc3cccc4ccccc34)cn2)c1 ; IC50 = 100 to 1000 nM

Entry O=C(CNCc1cc(/C=N/C2CC2)ccn1)N1CCC(Cc2ccccc2)CC1 ; IC50 = 250 to 2500 nM

IC50 for CN(C)CCCNCc1cc(CN)ccn1 is 250 to 2500 nM

Record N#Cc1[nH]nnc1-c1ccnc(-c2cn(CC3CCCc4ccccc43)cn2)c1 (stereo not shown) . Reported IC50: 100 to 1000 nM

Query Clc1ccccc1Cn1cnc(-c2cc(-c3c[nH]nn3)ccn2)c1 yields IC50 of 100 to 1000 nM

Short answer for CCNC(=O)C1CCN(Cc2cc(C(=O)O)ccn2)CC1 : IC50 was 250 to 2500 nM

Reported IC50 ( CC1(C)Cc2cccnc2C1NCc1cc(C(=O)O)ccn1 (stereo not shown) ) = 250 to 2500 nM

Field IC50 (entry CCN(CCN(C)C)C(=O)CNCc1cc(C2OCC(Cc3ccccc3)CN2C(=O)C(F)(F)F)ccn1 (stereo not shown) ) reads > 2500 nM

Lab book: IC50 of FC(F)(F)c1[nH]nnc1-c1ccnc(-c2cn(CCc3cccc4ccccc34)cn2)c1 noted as > 10000 nM

The compound listed as Cc1cccc(Cn2cnc(-c3cc(-c4c[nH]nn4)ccn3)c2)c1F shows IC50 equal to 100 to 1000 nM

Value of measured IC50 for the entry CCCNCc1cc(CNC2CC2)ccn1 : > 2500 nM

IC50 reading for CN(C)CCCCCNCc1cc(C=O)ccn1 : > 2500 nM

Short answer for Clc1[nH]nnc1-c1ccnc(-c2cn(CCc3cccc4ccccc34)cn2)c1 : IC50 was 1000 to 10000 nM

Value of measured IC50 for the entry CCN(CC)CCCCNCc1cc(/C=N/CCOC)ccn1 : 250 to 2500 nM

The value of IC50 measured for the compound c1ccc(OCC2CC2)c(CCn2cnc(-c3cc(-c4c[nH]nn4)ccn3)c2)c1 turned out to be 100 to 1000 nM

// CN(C)C/C=C/CNCc1cc(/C=N/C2CC2)ccn1 : IC50 value = 250 to 2500 nM

Per the records, this compound ( O=C(CNCc1cc(/C=N/C2CC2)ccn1)N1CCC[C@@H]1CN1CCCC1 ) has IC50 equal to 250 to 2500 nM
